- MOLECULE: "COc1ccc(-c2ccc(NC(=O)C=Cc3ccc(CN4CCCC4)cc3)cc2)cc1"
  melting point: "199 to 200 °C"
- MOLECULE: "COC(=O)c1cc(C(=O)OC)cc(-c2ccccc2)c1"
  melting point: "91 to 92 °C"
- MOLECULE: "CC(=O)N1CCn2c(CN3CCOCC3)ccc2C1"
  melting point: "117 to 118 °C"
- MOLECULE: "Ic1n[nH]c2ccccc12"
  melting point: "54 to 55 °C"
- MOLECULE: "CN1C(=O)CN=C(c2ccccc2F)c2c1cc(Cl)c(N)c2Cl"
  melting point: "234 °C"
- MOLECULE: "CCCCNc1ccc(-c2nc(C(=O)Nc3nccs3)c(-c3cccc(OC)c3)[nH]2)cc1"
  melting point: "228 to 231 °C"
- MOLECULE: "CC(C)(CNc1ccc(C(=O)CCC(=O)O)cc1)[N+](=O)[O-]"
  melting point: "198 to 200 °C"
- MOLECULE: "O=C(c1ccc2ncsc2c1)N1CCC[C@H](c2nc(-c3ccc(F)cc3)no2)C1"
  melting point: "63 to 64 °C"
- MOLECULE: "CCOCC(=O)Nc1nc[nH]c1-c1n[nH]c(-c2ccc(-c3ccccc3)cc2)n1"
  melting point: "280 °C"
- MOLECULE: "CCOC(=O)Cn1c(C(=O)OCC)c2c(c1C(=O)OCC)OCCCO2"
  melting point: "140 °C"
- MOLECULE: "CC1(C)C(=O)N(C(=O)NCC2CCN(CC3(C(=O)O)CCC3)CC2)c2cc(F)ccc21"
  melting point: "193 °C"
- MOLECULE: "COCCOc1ccc(/C=C/C(=O)NS(=O)(=O)c2ccc(Cl)cc2)c(Oc2ncc(C(F)(F)F)cc2Cl)c1"
  melting point: "182 °C"
- MOLECULE: "CCCOc1nc2cccc(C(=O)O)c2n1Cc1ccc(-c2ccccc2-c2nc(=O)o[nH]2)cc1"
  melting point: "170 to 172 °C"
- MOLECULE: "CC(C)OCCOc1ccc(-c2ccc3c(c2)C=C(C(=O)Nc2ccc(CN(C)C4CCOCC4)cc2)CCS3(=O)=O)cc1"
  melting point: "214 to 215 °C"
- MOLECULE: "Fc1ccc2[nH]c(SCC(F)(F)F)nc2c1"
  melting point: "136 to 139 °C"
- MOLECULE: "CNC1CN(CCO)CCN1c1ncc(SC)c(Cl)n1 (configuration not stated)"
  melting point: "120 to 122 °C"
- MOLECULE: "COC(C(=O)O)c1ccc2c(c1)C(C)(C)CCC2(C)C (racemic)"
  melting point: "135 to 136 °C"
- MOLECULE: "O=C1c2ccccc2-c2c1c1cc3c(cc1c(=O)n2CCCNS(=O)(=O)c1ccccc1)OCO3"
  melting point: "225 to 226 °C"
- MOLECULE: "CCC1Nc2c(cc(C)nc2C)N1c1ccc(CCNC(=O)NS(=O)(=O)c2ccc(C)cc2)cc1 (configuration not stated)"
  melting point: "143 °C"
- MOLECULE: "COC(=O)/C=C/c1ccc(CC(C)NCC(O)c2cccc(C(F)(F)F)c2)cc1 (configuration not stated)"
  melting point: "80 to 83 °C"
- MOLECULE: "COc1cc(CC#N)ccc1OCC#Cc1ccccc1"
  melting point: "74 to 75 °C"
- MOLECULE: "O=C1N(N2CCOCC2)c2ccccc2C1(O)Cc1ccccn1 (configuration not stated)"
  melting point: "168 to 170 °C"
- MOLECULE: "COc1cc(Nc2c(C#N)cnc3cc(Br)ccc23)c(Cl)cc1C"
  melting point: "215 to 217 °C"
- MOLECULE: "O=C(NCCSCc1ccc(Cl)cc1)c1c(Cl)cccc1Cl"
  melting point: "104 to 106 °C"
- MOLECULE: "C[C@@H]1NC(=O)OC1(C)C"
  melting point: "60 °C"
- MOLECULE: "CCCc1c(OCC(O)COc2cc(NC(=O)c3nnn[nH]3)c(C)cc2Br)ccc(C(C)=O)c1O (configuration not stated)"
  melting point: "155 to 158 °C"
- MOLECULE: "ClC(Cl)=NC(Cl)(Cl)C(Cl)(Cl)N=C(Cl)Cl"
  melting point: "167 °C"
- MOLECULE: "COCCOc1cc2ncc(C#N)c(Cl)c2cc1OC"
  melting point: "178 to 180 °C"
- MOLECULE: "CC(=O)Oc1c(C(C)(C)C)cc(C=O)cc1C(C)(C)C"
  melting point: "65.2 to 74.5 °C"
- MOLECULE: "CCOc1ccc2[nH]c(=O)n(C(C)(C)COC)c2c1"
  melting point: "149 °C"
- MOLECULE: "O=C1CN2Cc3ccccc3N=C2N1"
  melting point: "> 285 °C"
- MOLECULE: "Cc1cc(Cl)n(-c2ccc(Cl)nn2)n1"
  melting point: "123 to 126 °C"
- MOLECULE: "CC(=O)c1ccc(-c2nc(=O)c3ccccc3s2)cc1"
  melting point: "198 °C"
- MOLECULE: "CCC1c2[nH]c3ccccc3c2CC(CO)N1C(=S)SC (configuration not stated)"
  melting point: "170 to 172 °C"
- MOLECULE: "Nc1nc2ccccc2c2c1ncn2CCOC/C=C/c1ccccc1"
  melting point: "184 °C"
- MOLECULE: "N#Cc1nn(-c2c(Cl)cc(C(F)(F)F)cc2Cl)cc1-c1cc(Br)no1"
  melting point: "145 °C"
- MOLECULE: "CC1NCCc2ccccc21 (configuration not stated)"
  melting point: "60 °C"
- MOLECULE: "CN(C)c1ccccc1C(=O)N1CCC(=O)c2ccc(Cl)cc21"
  melting point: "85.5 to 89 °C"
- MOLECULE: "CN(C)C(=N)CCCCCCCCCCCCC(=N)N(C)C"
  melting point: "209 °C"
- MOLECULE: "Cc1cccc(NC(=O)NCC(=O)N(CC(=O)OC(C)(C)C)c2ccccc2C(=O)N(C)c2ccccc2)c1"
  melting point: "145 °C"
- MOLECULE: "CCCN1C(=O)C2(CC)CC(c3ccc(N)cc3)(C2)C1=O"
  melting point: "124 to 125 °C"
- MOLECULE: "NC(=O)N(O)CCNC(=O)c1ccc(Oc2ccc(Cl)cc2)o1"
  melting point: "173 to 175 °C"
